Assay: E. coli DRC41 culture turbidity changes, primary screen, E. coli filamentation inducer project, strain DRC41, OD650, 48 h (AID 1152);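 note: E. coli MC1000 strain DRC41 lacking acrAB efflux pump and sulA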
Conditions: E. coli DRC41 (acrAB sulA), higher = more signal, called active from +8 up or from −8 down
Readings of z-score for the listed compounds
Quick one: just the number, no unit, thanks!

Examples with their reported z-score follow.
CC(=O)OC[C@H]1O[C@H](CC=NOC(C)CN2CCCc3nc(C)c(C)cc32)C=C[C@@H]1OC(C)=O (some centres undefined) | 0.134
CCN1C(=O)[C@H]2[C@H]3[C@H](O)[C@H](O)CC(=NOCC=C(C)CCC=C(C)C)[C@@H]3CC[C@H]2C1=O | -1.27
O=C1C=C[C@@H](O)[C@@H]2[C@@H]3C(=O)N(Cc4ccc5c(c4)OCO5)C(=O)[C@@H]3CC[C@@H]12 | 0.038

Kindly review the next compound as well.
Which z-score is reported for this compound? COC(=O)[C@H](C)NC(=O)CC=C[C@@H](C)[C@@H]1C=C[C@H](O)[C@@H](CO)O1 0.645

###

Assay: FRG1 promoter luciferase signal modulators, primary screen, FRG1 inhibition for FSHD, cell-based, C2C12 myotubes, firefly/Renilla luciferase, luminescence (AID 1084)
Conditions: higher = more signal, called active from +8 up or from −8 down
propertyMeasured: z-score
Quick one: just the number, no unit, thanks!

Which z-score is reported for this compound? CC(=O)OC[C@H]1O[C@@H](ON=C(C)CCN2CCCCc3nc(C)c(C)cc32)[C@H](OC(C)=O)[C@@H](OC(C)=O)[C@@H]1OC(C)=O 0.694

Same thing, different compound: CCN1C(=O)[C@H]2[C@H]3[C@H](O)[C@H](O)CC(=NNC(=O)OCc4ccccc4)[C@@H]3CC[C@H]2C1=O 0.639

###

Experiment: basal 3T3-L1 adipocyte mitochondrial potential changes, profiling panel, cell-based, JC-1 fluorescence, 3T3-L1 adipocytes, 24 h, 100 nL compound (AID 1168); note: test concentration not given here
Settings: JC-1 mitochondrial fluorescence, higher = more signal, called active from +8 up or from −8 down
Readings of z-score for the listed compounds
Quick one: just the number, no unit, thanks!

Examples with their reported z-score follow.
CC(C)(C)N1C(=O)[C@H]2[C@@H]3C(=CC[C@H]2C1=O)C(=O)[C@H]1O[C@H]1[C@H]3O | 2.29
CCN1C(C)=C(C(=O)OC)[C@@H](c2ccccc2)N2C(=O)[C@](O)(C(=O)OC)CC(C(C)=O)=C12 | 0.935
CC(=O)OC[C@H]1O[C@H](CC=NOC(C)CN2CCCCc3nc(C)c(C)cc32)C=C[C@@H]1OC(C)=O (stereo not given in full) | -1.05
O=C1[C@H]2[C@H]3[C@H](O)[C@H](O)CC(=NO[C@@H]4O[C@H](CO)[C@@H](O)[C@H](O)[C@H]4O)[C@@H]3CC[C@H]2C(=O)N1C[C@@H]1CCCO1 | -0.0322
C#CCCCON=C1[C@H]2CCn3c(=O)n([C@@H](CC)c4ccccc4)c(=O)n3[C@H]2[C@H](O)[C@@H]2O[C@H]12 | 0.123

Which z-score is reported for this compound? C[C@@H]1CC[C@H]2C(=O)O[C@@H](COc3ccc(C(C)(C)C)cc3)CN2[C@H]1c1ccc(Br)cc1 -1.16

Same thing, different compound: O=C(NN=C1C[C@@H](O)[C@@H](O)[C@@H]2[C@@H]3C(=O)N(Cc4ccc5c(c4)OCO5)C(=O)[C@@H]3CC[C@@H]12)OCc1ccccc1 0.243

Same thing, different compound: O=C(NCCC[N+]1=CC=NC1c1ccccc1)N1CCCc2nc(-c3ccc(Br)cc3)ccc21 (stereo not given) -0.141

Same thing, different compound: CCOC(=O)[C@H](CC(C)C)NC(=O)CCC1CC(OC(=O)NCc2ccc3c(c2)OCO3)CC2(CCCC(COC(=O)NCCc3ccc(Cl)cc3)O2)O1 (stereo not given in full) 0.526

Same thing, different compound: CCc1cc2c(nc1CC)CCN(CCC(C)=NOC(C)CN1CCCCc3nc(C)c(C)cc31)C2 (stereo not given) -1.02

###

Target: Torsin-1A-interacting protein 2 (Homo sapiens)
Assay: LULL1 binders on small-molecule microarray, primary screen, cell lysate, human LULL1 lysate, 635/667 nm fluorescence (AID 1092);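 note: probe is lysate of COS7 cells overexpressing human LULL1; score merges per-feature 667 nm fluorescence with signal-to-noise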
Conditions: hLULL1 lysate binding, 635 nm fluorescence, higher = more signal
propertyMeasured: composite z-score
Quick one: just the number, no unit, thanks!

Examples with their reported composite z-score follow.
CCOC(=O)CCN1C(=O)[C@H]2[C@H]3[C@H](O)[C@H](O)CC(=O)[C@@H]3CC[C@H]2C1=O | 0.846
CC(=O)OC[C@H]1O[C@H](CC=NO[C@H](C)c2cn([C@@H]3COC[C@H]3O)nn2)C=C[C@@H]1OC(C)=O | -0.3
COC(OC)[C@@H](C)[C@H](OC)[C@@H](C)[C@H](OC)c1ccccc1 | -1.37

Kindly review the next compound as well.
Which composite z-score is reported for this compound? CO[C@@H]1C=CCC(=O)N[C@@H](C)C(=O)OC[C@@H](OC)[C@H](C)C=CCC(=O)OC[C@H]1C -1.33

###

Experiment: small-molecule microarray binders of probe aCHRDL2, primary screen, biochemical, biotinylated probe, 635/667 nm fluorescence (AID 1100)
Conditions: higher = more signal
composite z-score of -0.4 or higher: fulfilled. Under -0.4: not fulfilled.

Would you please look over these solved cases?
CC(=O)OC[C@H]1O[C@H](CC=NO[C@H](C)c2cn([C@@H]3COC[C@H]3O)nn2)C=C[C@@H]1OC(C)=O | not fulfilled
O=C1CCCC=C1C(O)COCc1ccccc1 (stereo not drawn) | fulfilled
COC(OC)[C@@H](C)[C@H](OC)[C@@H](C)[C@H](OC)c1ccccc1 | not fulfilled
CO[C@H]1COC(=O)[C@H](C)COC(=O)[C@@H](OCc2ccccc2)C=C[C@@H]1C | not fulfilled
CC(CCC(=O)OC[C@H]1O[C@H](C#Cc2ccccc2)C=C[C@@H]1Oc1ccc(C)cc1)=NOC[C@@H](C)[C@H](OCc1ccccc1)C(C)C | not fulfilled
O=C(NN=C1C[C@@H](O)[C@@H](O)[C@@H]2[C@@H]3C(=O)N(Cc4ccc5c(c4)OCO5)C(=O)[C@@H]3CC[C@@H]12)OCc1ccccc1 | fulfilled
COc1cccc([C@H]2Oc3ccc(OC)cc3C(=NO[C@@H](C)c3cc(-c4c(C)cc(C)cc4C)no3)[C@@H]2O)c1 | fulfilled

Please tell me: is the compound CC(C)=CCCC(C)=CCON=C1C[C@@H](O)[C@@H](O)[C@@H]2[C@@H]3C(=O)N(Cc4ccc5c(c4)OCO5)C(=O)[C@@H]3CC[C@@H]12 at or over -0.4 in terms of composite z-score? not fulfilled

###

Readings of composite z-score for the listed molecules
Test system: PRMT1 (protein arginine N-methyltransferase 1)
Experiment: PRMT1 binders on small-molecule microarrays, primary screen, biochemical, small-molecule microarray, 635 nm fluorescence (AID 1088);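 note: binding of Prmt1 protein to compounds spotted on small-molecule microarray slides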
Conditions: small-molecule microarray binding, higher = more signal

CC(CCC(=O)OC[C@H]1O[C@H](C#Cc2ccccc2)C=C[C@@H]1Oc1ccc(C)cc1)=NOC(C)CN1CCCCc2nc(C)c(C)cc21 (some centres undefined) | 0.479
CC(=O)OC[C@H]1O[C@H](CC=NO[C@@H](C)c2cn([C@H](CO)Cc3ccccc3)nn2)C=C[C@@H]1OC(C)=O | 1.56
CC(C)(C)N1C(=O)[C@H]2[C@H]3[C@H](O)[C@H](O)CC(=NNC(=O)OCc4ccccc4)[C@H]3CC[C@H]2C1=O | 1.3

Which composite z-score is reported for this molecule? CC(C)=CCCC(C)=CCON=C1C[C@@H](O)[C@@H](O)[C@@H]2[C@@H]3C(=O)N([C@@H](C)c4ccccc4)C(=O)[C@@H]3CC[C@@H]12 -0.744

###

Assay: splicing luciferase reporter signal modulators, primary screen, spliceosome inhibition project, cell-based, HEK293, splice +/- reporter (AID 1101);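 note: HEK293 cells carrying a splicing-competent luciferase reporter gene; test concentration not given here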
Conditions: luminescence, 24 h, higher = more signal, called active from +8 up or from −8 down
Active and inactive are the calls of the source.
Readings of z-score for the listed molecules

CC(C)C(=O)N[C@H]1CCCN1C(=O)C=Cc1ccccc1 | 0.539 (inactive)

Which z-score is reported for this molecule? CC(CCN1CCCc2nc(C)c(C)cc21)=NOC[C@@H](O)COCc1ccco1 0.58 (inactive)

Same thing, different molecule: CC(CCC(=O)OC[C@H]1O[C@H](C#Cc2ccccc2)C=C[C@@H]1Oc1ccc(C)cc1)=NOC(C)CN1CCCCc2nc(C)c(C)cc21 (stereo partly specified) -0.176 (inactive)

Same thing, different molecule: CO[C@@H](C1CCCCC1)[C@@H](C)[C@H](OCc1cccc(Br)c1)[C@@H](C)CO 0.899 (inactive)

Same thing, different molecule: C=CC[C@@H]1C=C[C@H](ON=C[C@@H](NS(=O)(=O)c2ccc(C)cc2)[C@H](C)C=CCC(=O)OC)[C@@H](CO)O1 0.463 (inactive)

Same thing, different molecule: CC1(C)O[C@H]2OC([C@H](O)CON3C(=O)c4ccccc4C3=O)[C@H](O)[C@H]2O1 (stereo partly specified) 0.105 (inactive)

Same thing, different molecule: CO[C@H]1COC(=O)[C@H](C)COC(=O)[C@H](C)NC(=O)CC=C[C@H]1C 0.0547 (inactive)

Same thing, different molecule: COC(=O)[C@@H]1CC[C@H](C)[C@@H](c2ccc(C)cc2)N1C(=O)c1ccc(C=NOC[C@@H](O)[C@H]2O[C@@H]3OC(C)(C)O[C@@H]3[C@H]2O)cc1 0.569 (inactive)

Same thing, different molecule: O=C1C2=CC[C@H]3C(=O)N(Cc4ccccc4)C(=O)[C@H]3[C@H]2[C@H](O)[C@@H]2O[C@H]12 6.91 (inactive)

Same thing, different molecule: CCOC(=O)[C@H](CC(C)C)NC(=O)CCC1CC(OC(=O)NCc2ccc3c(c2)OCO3)CC2(CCCC(COC(=O)NCCc3ccccc3OC)O2)O1 (stereo partly specified) 0.0955 (inactive)

Same thing, different molecule: COC(=O)C(C(=O)OC)C1CCCC(=O)C1 (stereo unspecified) -0.388 (inactive)

Same thing, different molecule: C[C@@H](c1ccccc1)N1C(=O)[C@H]2[C@H]3[C@H](O)[C@H](O)CC(=NOC[C@@H](O)COCc4ccco4)[C@H]3CC[C@H]2C1=O 0.319 (inactive)
